System: Mycobacterium tuberculosis
Test: Cornell M. t heat shock assay; note: in the data most compounds retested in dose-response had high values
Type: functional, organism-based
Parameters: dose or concentration left out as unconfirmed
Hit rate of the full screen: of about 69,000 compounds, about 950 (1.4%) showed an effect of 50% or more. Only a selection was taken, and strong results are over-represented in it overall.
Hi there, I'd appreciate the recorded Percent Effect for every entry that follows.
Answers are plain numbers, in %.

The following compounds have reported results that may help.
1. COC(=O)c1cccc(CN(C)C(C)c2ccccn2)c1 (stereo unspecified) ... -7.966
2. O=C(CC1CN(Cc2ccccc2)CCO1)NC1CCCC1 (stereo unspecified) ... -14.55

Parameters: items (list). Returns: Percent Effect for each item.
1. Cl.O=C(O)CC1CN(Cc2ccccc2)CCO1 (stereo unspecified)
2. O=C(CC1CN(Cc2ccccc2)CCO1)NCCN1CCOCC1 (stereo unspecified)
3. O=C(O)C(F)(F)F.O=C1CC(c2cccnc2)C2(CCN(S(=O)(=O)C3CC3)CC2)N1 (stereo unspecified)
4. COCCO[C@@H]1CCN(C(=O)c2ccc(C)o2)[C@@H]1Cc1cnn(C)c1

Response:
70.76
-41.8
-6.88
11.53
